# System: Rattus norvegicus
# procedure-details: In vivo Area under curve (AUC) was determined after oral administration of compound (158.5+/-2 mg/kg) in male Sprague-Dawley rat
endpoint-name: AUC

GET /values?readout=AUC&system=Rattus norvegicus&item= O=C(NC[C@H]1CN(c2ccc(C3CC[S+]([O-])CC3)c(F)c2)C(=O)O1)C(F)F (stereo partly specified) 60800 ng·h/mL

----------
# Tested on: Rattus norvegicus
# procedure-details: In vivo Area under curve (AUC) was determined after intravenous administration of compound (9.13+/-0.85 mg/kg) in male Sprague-Dawley rat
# Type: ADME, organism-based
endpoint-name: AUC (ng·h/mL)
Your answer is read as ng·h/mL, so omit the unit and give the number.

Please look up its AUC: O=C(NC[C@H]1CN(c2ccc(C3CC[S+]([O-])CC3)c(F)c2)C(=O)O1)C(F)F (stereo partly specified) 4090
